Each entry below lists one item and its recorded pKd value.
molecular target: T1, human MCP-1 (human, UniProt P13500 24-99); assay: KinExA, in solution, Fab
T1 construct: also called hMCP-1; huMCP-1
Please note pKd is a logarithmic value: minus log10 of concentration in mol/L. Answer with that number alone.

Please review the entries below; each comes with its answer.
Fab fragment of humanized 11K2 H2L1 (Fab, V domains shown) VH: QVQLVQSGAEVKKPGSSVKVSCKASGLTISDTYMHWVRQAPGQGLEWMGRIDPANGNTKFDPKFQGRVTITADTSTSTAYMELSSLRSEDTAVYYCARGVFGFFDYWGQGTTVTVSS VL: DIQMTQSPSSLSASVGDRVTITCKATEDIYNRLAWYQQKPGKAPKLLISGATSLETGVPSRFSGSGSGKDYTLTISSLQPEDFATYYCQQFWSAPYTFGGGTKVEIKR | 10.19
Fab fragment of humanized 11K2 H1L2 (Fab, V domains shown) VH: QVQLVQSGAEVKKPGSSVKVSCKASGLNIKDTYMHWVRQAPGQGLEWIGRIDPANGNTKFDPKFQGRATITADTSTSTAYMELSSLRSEDTAVYYCARGVFGFFDYWGQGTTVTVSS VL: DIQMTQSPSSLSASVGDRVTITCKATEDIYNRLAWYQQKPGKAPKLLISGATSLETGVPSRFSGSGSGTDYTLTISSLQPEDFATYYCQQFWSAPYTFGGGTKVEIKR | 10.21
Fab fragment of chimeric 11K2 (Fab, V domains shown, also called Ch11K2) VH: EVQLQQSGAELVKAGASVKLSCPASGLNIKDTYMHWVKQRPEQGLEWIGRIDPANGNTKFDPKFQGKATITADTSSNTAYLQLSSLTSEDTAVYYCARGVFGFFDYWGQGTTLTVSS VL: DIQMTQSSSSFSVSLGDRVTITCKATEDIYNRLAWYQQKPGSAPRLLISGATSLETGVPSRFSGSGSGKDYTLSITSLQTEDVATYYCQQFWSAPYTFGGGTKLEIKR | 10.71
Fab fragment of humanized 11K2 H2L2 (Fab, V domains shown) VH: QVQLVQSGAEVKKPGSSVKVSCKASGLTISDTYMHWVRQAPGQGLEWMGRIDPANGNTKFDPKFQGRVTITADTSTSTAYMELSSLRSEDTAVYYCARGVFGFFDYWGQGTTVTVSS VL: DIQMTQSPSSLSASVGDRVTITCKATEDIYNRLAWYQQKPGKAPKLLISGATSLETGVPSRFSGSGSGTDYTLTISSLQPEDFATYYCQQFWSAPYTFGGGTKVEIKR | 10.11

Here is another binder to look at.
Exercise: Give pKd for the following binder: Fab fragment of humanized 11K2 H1L1 (Fab, V domains shown) VH: QVQLVQSGAEVKKPGSSVKVSCKASGLNIKDTYMHWVRQAPGQGLEWIGRIDPANGNTKFDPKFQGRATITADTSTSTAYMELSSLRSEDTAVYYCARGVFGFFDYWGQGTTVTVSS VL: DIQMTQSPSSLSASVGDRVTITCKATEDIYNRLAWYQQKPGKAPKLLISGATSLETGVPSRFSGSGSGKDYTLTISSLQPEDFATYYCQQFWSAPYTFGGGTKVEIKR
Key: 10.44
